Experiment: Half life in Sprague-Dawley rat at 2 mg/kg, iv
Type: ADME, organism-based
Design: dose 2 mg/kg, route intravenous
Settings: in vivo
readout type: half-life (h)

Study these solved cases before continuing.
1) Cc1ccc(C(=O)NC2CC2)cc1Nc1nncc2c1cnn2-c1c(F)cccc1F; 2.8
2) O=C(NC1CC1)c1ccc(Cl)c(Nc2nncc3c2cnn3-c2ccc(F)cc2F)c1; 3.5

I. Cc1nnc(Nc2cc(C(=O)NC3CC3)ccc2Cl)c2cnn(-c3c(F)cccc3F)c12
II. O=C(NC1CC1)c1ccc(Cl)c(Nc2nncc3c2cnn3-c2c(F)cccc2F)c1
Exam item: Between these two entries, I and II , state which has the higher half-life. // output: label of the selected item
Marked response: II

====

Experiment: AUC (0 to infinity) in Sprague-Dawley rat at 2 mg/kg, po
Type: ADME, organism-based
Set-up: time infinity, dose 2 mg/kg, route oral
Details: plasma
readout type: AUC(0-inf) (ng·h/mL)

1) O=C(NC1CC1)c1ccc(Cl)c(Nc2nncc3c2cnn3-c2ccc(F)cc2F)c1; 6550

I. Cc1nnc(Nc2cc(C(=O)NC3CC3)ccc2Cl)c2cnn(-c3c(F)cccc3F)c12
II. O=C(NC1CC1)c1ccc(Cl)c(Nc2nncc3c2cnn3-c2c(F)cccc2F)c1
III. Cc1ccc(C(=O)NC2CC2)cc1Nc1nncc2c1cnn2-c1c(F)cccc1F
Exam item: Could you please sort these 3 entries by AUC(0-inf) from high to low? # answer = labels listed in requested order
Marked response: II, I, III
(II: 6830 ng·h/mL, I: 3880 ng·h/mL, III: 671 ng·h/mL)

====

Assay: Oral bioavailability in Sprague-Dawley rat at 2 mg/kg
Format: ADME, organism-based
Details: in vivo
readout type: bioavailability (%)

Study these solved cases before continuing.
1. Cc1nnc(Nc2cc(C(=O)NC3CC3)ccc2Cl)c2cnn(-c3c(F)cccc3F)c12; 91
2. O=C(NC1CC1)c1ccc(Cl)c(Nc2nncc3c2cnn3-c2c(F)cccc2F)c1; 75

A. O=C(NC1CC1)c1ccc(Cl)c(Nc2nncc3c2cnn3-c2ccc(F)cc2F)c1
B. Cc1ccc(C(=O)NC2CC2)cc1Nc1nncc2c1cnn2-c1c(F)cccc1F
Exam item: Between these two entries, A and B , state which has the higher bioavailability. // output: label of the selected item
Marked response: A
(A: 53%, B: 19%)

====

Test: Volume of distribution at steady state in Sprague-Dawley rat at 2 mg/kg, iv
Assay type: ADME, organism-based
Set-up: dose 2 mg/kg, route intravenous
Conditions: in vivo, read-out: Vdss
readout type: Vd (L/kg)

Study these solved cases before continuing.
1. Cc1nnc(Nc2cc(C(=O)NC3CC3)ccc2Cl)c2cnn(-c3c(F)cccc3F)c12; 1.4
2. O=C(NC1CC1)c1ccc(Cl)c(Nc2nncc3c2cnn3-c2ccc(F)cc2F)c1; 0.89

A. O=C(NC1CC1)c1ccc(Cl)c(Nc2nncc3c2cnn3-c2c(F)cccc2F)c1
B. Cc1ccc(C(=O)NC2CC2)cc1Nc1nncc2c1cnn2-c1c(F)cccc1F
Exam item: Between these two entries, A and B , state which has the higher Vd. // output: label of the selected item
Marked response: B
(B: 1.6 L/kg, A: 1.1 L/kg)

====

Test: Clearance in Sprague-Dawley rat at 2 mg/kg, iv
Assay type: ADME, organism-based
Parameters: dose 2 mg/kg, route intravenous
Settings: in vivo
readout type: clearance (mL/min/kg)

1. Cc1nnc(Nc2cc(C(=O)NC3CC3)ccc2Cl)c2cnn(-c3c(F)cccc3F)c12; 7.83
2. O=C(NC1CC1)c1ccc(Cl)c(Nc2nncc3c2cnn3-c2ccc(F)cc2F)c1; 2.67

P. O=C(NC1CC1)c1ccc(Cl)c(Nc2nncc3c2cnn3-c2c(F)cccc2F)c1
Q. Cc1ccc(C(=O)NC2CC2)cc1Nc1nncc2c1cnn2-c1c(F)cccc1F
Exam item: Lower clearance: P or Q ? // output: label of the selected item
Marked response: P
(P: 3.67 mL/min/kg, Q: 9.67 mL/min/kg)
